Each entry below lists one item and its recorded intrinsic clearance, rat liver microsomes value.
Just the number in mL/min/kg, nothing appended.

As a guide, the following entries are already answered.
O=C(CN1CCC(n2c(=O)[nH]c3ccccc32)CC1)N1CCc2ccccc21 :: 393
O=C(CN1CCCC(c2nc3ccccc3o2)C1)Nc1ccc(OC(F)(F)F)cc1 (stereo unspecified) :: 496
Cc1noc(C)c1CS(=O)(=O)C1CCCc2ccccc21 (stereo unspecified) :: 1400
CC1CCN(Cc2ccc(NC(=O)c3ccccn3)cc2)CC1 :: 16.2
COc1ccc(-c2cccc(C3CCCN(CC(=O)Nc4ccccn4)C3)n2)cc1 (stereo unspecified) :: 2220
COc1c(C)cnc(CN(C)S(N)(=O)=O)c1C :: 82
COc1c(N)ncnc1N1CCCC(C)(C)CC1 :: 1210
CCc1cnc(NCc2ccc(CN3CCCC3)cc2)nc1 :: 291

According to the records, this molecule CC(=O)N1CCC(CCNc2ccc3ccc(F)cc3n2)CC1 displays intrinsic clearance, rat liver microsomes of 264

Entry Cc1noc(C)c1CS(=O)(=O)Cc1cccc2c1OCCO2 ; intrinsic clearance, rat liver microsomes = 2290

Per the record, Cc1cc(C(=O)NC(C)(C)C#N)nn1-c1ccc(F)cc1 has intrinsic clearance, rat liver microsomes of 19.7

According to the records, this molecule O=C(Nc1ccccn1)c1ccc2c(c1)C(=O)N(C1CCCCC1)C2=O displays intrinsic clearance, rat liver microsomes of 791

The molecule N#Cc1ccc(C(=O)N2CCCO2)nc1 showed intrinsic clearance, rat liver microsomes equal to 1020

Entry under test: Cc1cc(C(=O)NC2CCN(C(=O)c3cc(C)sc3C)CC2)no1 . Its intrinsic clearance, rat liver microsomes was 93.7

In plain terms, O=C(NCCc1ccc2c(c1)OCCO2)c1ccc2ccccc2n1 has a documented intrinsic clearance, rat liver microsomes of 1950

Looking up O=C(NCc1cnn(-c2ccccc2)c1)C1CCC1 , I found its intrinsic clearance, rat liver microsomes recorded as 117

Documented intrinsic clearance, rat liver microsomes of CCOc1cc(CNc2ccc(N3CCOCC3)c(C(=O)O)c2)cc(Cl)c1OC : 154

Sure, the documented intrinsic clearance, rat liver microsomes for Clc1cc2ncc(-n3ccnc3)nc2cc1Cl is 134

Input CN1CCc2ncnc(N3CCCN(c4nccs4)CC3)c2C1 . Output intrinsic clearance, rat liver microsomes: 131

intrinsic clearance, rat liver microsomes in this record for c1ccc(Cc2cccc3cc4c(nc23)OCCNC4)cc1 : 1120

The molecule identified as CCc1nc(CN2C(=O)COc3ccc(F)cc32)cs1 registered its intrinsic clearance, rat liver microsomes at 1250

---

ENDPOINT: intrinsic clearance, rat liver microsomes

For record Cc1nc(-c2cccc(C(N)=O)c2)sc1-c1ccc(F)cc1 the listed intrinsic clearance, rat liver microsomes is 394 mL/min/kg

According to the records, this compound CCCc1noc(CN2CCN(c3ccccc3OC)CC2)n1 displays intrinsic clearance, rat liver microsomes of 351 mL/min/kg

Record summary for Cc1ncc(-c2ccc(C)c(S(=O)(=O)NCc3cnn(C)c3C)c2)o1 : reported intrinsic clearance, rat liver microsomes = 1370 mL/min/kg

---

# ASSAY_SETUP: pH 6.8
ENDPOINT: aqueous solubility (µg/mL)
// return numeric value only (unit: µg/mL, not printed)

CCc1cc2c(cc1N1CCC(N3CCOCC3)CC1)C(C)(C)c1[nH]c3cc(C#N)ccc3c1C2=O :: 11.7
O=C(Cc1ccc(Cl)cc1)NCc1ccncc1 :: 51.6
CN(Cc1nnc(C2CC2)n1C)C(=O)C1C2CC3CC(C2)CC1C3 (stereo unspecified) :: 46.4
Cc1sc2ncnc(N3CCC(C(=O)Nc4ccccn4)CC3)c2c1C :: 1.85
COCCN(Cc1cccs1)Cc1cccc(C)c1O :: 1.05

# ---- query compound ----
Record summary for N#CCN(C(=O)c1cn(-c2ccc(Br)cc2)cn1)C1CC1 : reported aqueous solubility = 65.3

---

ENDPOINT: MDR1-MDCK efflux ratio

Below, each entry is followed by its recorded MDR1-MDCK efflux ratio result.
Cc1ccc2c(c1)c1nc3ccccc3nc1n2CC(N)=O :: 0.833
Cc1nc2cc(C(=O)NC34CCCC3NCC4)ccc2c(=O)[nH]1 (stereo not given) :: 0.754
COCc1ccccc1COC(=O)c1ccc(C)nc1 :: 0.608

Kindly note the recorded MDR1-MDCK efflux ratio for Cc1cc(C)c(NC(=O)Cn2nnn(-c3cccs3)c2=O)c(C)c1 , which is 0.738

MDR1-MDCK efflux ratio reading for CCN(CC)C(=O)c1ccc(C2=CC3(CCNCC3)Oc3cccc(O)c32)cc1 : 20.9

---

Record Yes whenever intrinsic clearance, human liver microsomes is at 20 mL/min/kg or higher; record No when lower.

Ask | Determine whether this compound has intrinsic clearance, human liver microsomes no lower than 20 mL/min/kg: Cc1nn(C)c(C)c1-c1cc(C(C)(C)C)nc(N2CCN(C)CC2)n1
Reply | No

Ask | Confirm if intrinsic clearance, human liver microsomes reported for the compound CCN1CCN(S(=O)(=O)c2c[nH]c(C(C)C)n2)c2ccccc21 is 20 mL/min/kg or above.
Reply | Yes

Ask | Is reported intrinsic clearance, human liver microsomes greater than or equal to 20 mL/min/kg here: COc1ccc2c(c1)C(=O)N(c1ccc(C)cc1)C(=O)C2
Reply | Yes

Ask | Check if intrinsic clearance, human liver microsomes >= 20 mL/min/kg (inclusive). Item: CNC(=O)c1ccc(CN(C)c2c(F)cc(C#N)cc2F)cc1
Reply | No

Ask | Given CC(=O)N1CCC(C(=O)Nc2nccs2)(c2ccccc2)CC1 , state whether its intrinsic clearance, human liver microsomes is at least 20 mL/min/kg.
Reply | No

Ask | Dear colleague, could you confirm whether Cc1ccc(OCC2(O)CCN(CC3(O)CCN(c4ccccc4C)CC3)CC2)cc1 has intrinsic clearance, human liver microsomes at or above 20 mL/min/kg?
Reply | Yes

---

ENDPOINT: MDR1-MDCK efflux ratio
# print the numeric value only

Documented MDR1-MDCK efflux ratio of COc1ccc(NC(=O)c2snnc2C)c(OC)c1 : 0.521

So, CC(C)(C)C(=O)N1CCC(NS(C)(=O)=O)CC1 ? Its MDR1-MDCK efflux ratio was 1.89

Documented MDR1-MDCK efflux ratio of c1ccc(-c2noc(NC3CC3)n2)cc1 : 0.809

Looking up O=C(NCCc1ccc2c(c1)OCCO2)c1ccc2ccccc2n1 , I see its MDR1-MDCK efflux ratio listed as 0.565

---

# maps each entry to its intrinsic clearance, human liver microsomes

Reference set (5 entries):
CS(=O)(=O)CCN1CCC(n2c(=O)[nH]c3ccccc32)CC1 :: ≤ 4.74 mL/min/kg
O=S(=O)(c1cccc2c(O)nccc12)N1CCCNCC1 :: ≤ 4.74 mL/min/kg
CSCc1csc(NC(C)=O)n1 :: 19.2 mL/min/kg
CCN1CCc2nc(NC(=O)Cc3ccc(Cl)cc3)sc2C1 :: 11.6 mL/min/kg
CC(C)(C)c1cc(NS(=O)(=O)c2cccc(F)c2)cc(C(C)(C)C)c1 :: 10 mL/min/kg

Field intrinsic clearance, human liver microsomes (entry COc1ccc(CNC(=O)c2sc3nc(C)cc(C)c3c2N)cc1 ) reads 44.1 mL/min/kg

// sample Clc1ccc(Cc2nc(-c3ccccc3)n[nH]2)cn1 , its intrinsic clearance, human liver microsomes was 40.9 mL/min/kg

# compound Cc1ccsc1CN(C)C(=O)[C@@H]1CCCN1C(=O)NC(C)C ; its intrinsic clearance, human liver microsomes = 13 mL/min/kg

Reported intrinsic clearance, human liver microsomes ( Cc1cccc(-n2c(S)nnc2CNc2ccc(F)cc2)c1 ) = 17.2 mL/min/kg

intrinsic clearance, human liver microsomes reported for this compound CNCc1cc(NC)nc(C2CCCN2C(=O)COc2ccccc2OC)n1 (centres undefined) : ≤ 4.74 mL/min/kg

// field: intrinsic clearance, human liver microsomes; key: Cc1nnc(N2CCCSCC2)c(C#N)c1C ; value = 35.7 mL/min/kg

The compound listed as Cc1ccccc1OCCCNc1cc(Cn2c(C)nc3ccccc32)nc(N)n1 shows intrinsic clearance, human liver microsomes equal to 717 mL/min/kg

intrinsic clearance, human liver microsomes reading for CC(C)Cc1cc(CN2CCN(S(=O)(=O)N3CCOCC3)CC2)n[nH]1 : 21.5 mL/min/kg

intrinsic clearance, human liver microsomes in this record for CCCNC(=O)c1c(C)nn(-c2ccccc2)c1C : 13.1 mL/min/kg

So for CCS(=O)(=O)N1CCN(c2ccc(Nc3ncc(C(N)=O)c(NC4CC4)n3)cc2)CC1 , the logged intrinsic clearance, human liver microsomes turned out to be 9.73 mL/min/kg

Note to self: intrinsic clearance, human liver microsomes recorded for Cc1cccc(-c2cccc(C(=O)NCCC3(O)CCCC3)c2)n1 was 21.6 mL/min/kg

CCc1c(O)cc(O)c(C(=O)c2ccc(OCCN3CCOCC3)c(OC)c2)c1CC(=O)N(CCOC)CCOC yielded intrinsic clearance, human liver microsomes of 28.1 mL/min/kg

Lab book: intrinsic clearance, human liver microsomes of O[C@@H]1C[C@@H](c2nc(-c3ccccc3)no2)N(Cc2ccccc2)C1 noted as 54.2 mL/min/kg

The recorded intrinsic clearance, human liver microsomes for CC(C)(C)NC(=O)NCCn1nc2c(cc1=O)CCCC2 is 12.1 mL/min/kg

For this compound ( COc1cccc(-c2nc(-c3cccnc3)n[nH]2)c1 ), measured intrinsic clearance, human liver microsomes is ≤ 4.74 mL/min/kg

Recorded intrinsic clearance, human liver microsomes (compound CSc1ccc(NC(=O)Cn2nc(C3CC3)ccc2=O)cc1 ): 175 mL/min/kg

Value of intrinsic clearance, human liver microsomes reported for the compound Cc1ccc(CCNc2nc(C)cc(C)n2)cn1 is 12.7 mL/min/kg

intrinsic clearance, human liver microsomes in this record for C#Cc1cccc(N(CC(=O)NC(N)=O)Cc2cccs2)c1 : 38.5 mL/min/kg
